These measurements were taken from paper PMC10247784.

- target.or.test.system: mouse Tas2r144 (Mus musculus, UniProt Q7TQB8)
- Construct: expressed in transfected cells; host or cells: HEK293T-Gα16gust44
- Sequence (Q7TQB8 whole entry): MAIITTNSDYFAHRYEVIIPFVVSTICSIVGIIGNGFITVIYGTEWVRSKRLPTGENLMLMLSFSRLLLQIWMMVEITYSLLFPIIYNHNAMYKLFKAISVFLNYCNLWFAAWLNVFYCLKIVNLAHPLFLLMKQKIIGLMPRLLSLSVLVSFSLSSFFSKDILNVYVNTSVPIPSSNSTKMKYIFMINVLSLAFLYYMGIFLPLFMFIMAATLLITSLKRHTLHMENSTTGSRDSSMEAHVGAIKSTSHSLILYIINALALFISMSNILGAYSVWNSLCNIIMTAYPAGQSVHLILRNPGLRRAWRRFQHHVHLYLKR
- assay: Calcium imaging assay (FLIPR), HEK293T-Gα16gust44 cells transfected with mouse Tas2r144
- Assay type: cell-based
- study.conditions: Time 108.781 s
Record form. Attribute: RLU. Fill in for each entry.
Answers are plain numbers, in RLU.

Check out these entries, answers already filled in.
compound: C[C@H](CCC(=O)NCC(=O)O)[C@H]1CC[C@H]2[C@@H]3[C@H](O)C[C@@H]4C[C@H](O)CC[C@]4(C)[C@H]3C[C@H](O)[C@]12C [Glycocholic Acid, glycocholic acid]
u: RLU
reported.result: 354.221
--
compound: C[C@H](CCC(=O)NCCS(=O)(=O)O)[C@H]1CC[C@H]2[C@@H]3CC[C@@H]4C[C@H](O)CC[C@]4(C)[C@H]3CC[C@]12C [Taurolithocholic Acid, taurolithocholic acid]
u: RLU
reported.result: 385.581
--
compound: C[C@H](CCC(=O)O)[C@H]1CC[C@H]2[C@@H]3[C@H](O)C[C@@H]4C[C@H](O)CC[C@]4(C)[C@H]3C[C@H](O)[C@]12C [Cholic Acid, cholic acid]
u: RLU
reported.result: 481.982

Now take the following compound into account.
Measured RLU (mouse Tas2r144 (Mus musculus, UniProt Q7TQB8)), entry C[C@H](CCC(=O)NCCS(=O)(=O)O)[C@H]1CC[C@H]2[C@@H]3[C@H](O)C[C@@H]4C[C@H](O)CC[C@]4(C)[C@H]3C[C@H](O)[C@]12C [Taurocholic Acid, taurocholic acid] : 527.817

###

Record form. Attribute: RLU. Fill in for each entry.
- target.or.test.system: human TAS2R1 (Homo sapiens, UniProt Q9NYW7)
- Construct: expressed in transfected cells; host or cells: HEK293T-Gα16gust44
- assay: Calcium imaging assay (FLIPR), HEK293T-Gα16gust44 cells transfected with human TAS2R1
- Format: cell-based
- study.conditions: Time 143.547 s
Numbers only, in RLU.

structure.notation: C[C@H](CCC(=O)NCC(=O)O)[C@H]1CC[C@H]2[C@@H]3[C@H](O)C[C@@H]4C[C@H](O)CC[C@]4(C)[C@H]3C[C@H](O)[C@]12C
target.or.test.system: human TAS2R1 (Homo sapiens, UniProt Q9NYW7)
RLU (RLU): 348.952

Please state, for each entry, its recorded RLU.
1. C[C@H](CCC(=O)NCCS(=O)(=O)O)[C@H]1CC[C@H]2[C@@H]3CC[C@@H]4C[C@H](O)CC[C@]4(C)[C@H]3CC[C@]12C
2. C[C@H](CCC(=O)NCCS(=O)(=O)O)[C@H]1CC[C@H]2[C@@H]3[C@H](O)C[C@@H]4C[C@H](O)CC[C@]4(C)[C@H]3C[C@H](O)[C@]12C
3. C[C@H](CCC(=O)O)[C@H]1CC[C@H]2[C@@H]3CC[C@@H]4C[C@H](O)CC[C@]4(C)[C@H]3C[C@H](O)[C@]12C

1: 371.698; 2: 228.429; 3: 341.925

###

Record form. Attribute: RLU. Fill in for each entry.
- target.or.test.system: mouse Tas2r105 (Mus musculus)
- Construct: expressed in transfected cells; host or cells: HEK293T-Gα16gust44
- Sequence (Q9JKT4 whole entry): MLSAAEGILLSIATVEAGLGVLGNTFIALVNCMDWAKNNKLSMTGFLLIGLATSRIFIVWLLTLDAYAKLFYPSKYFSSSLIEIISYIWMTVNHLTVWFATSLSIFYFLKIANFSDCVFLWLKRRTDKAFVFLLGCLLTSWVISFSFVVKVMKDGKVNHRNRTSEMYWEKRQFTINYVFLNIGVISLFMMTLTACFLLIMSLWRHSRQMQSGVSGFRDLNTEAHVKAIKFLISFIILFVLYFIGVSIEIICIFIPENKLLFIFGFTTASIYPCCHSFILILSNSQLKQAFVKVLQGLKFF
- assay: Calcium imaging assay (FLIPR), HEK293T-Gα16gust44 cells transfected with mouse Tas2r105
- Type: cell-based
- study.conditions: Time 16 s
Numbers only, in RLU.

Check out these entries, answers already filled in.
compound: C[C@H](CCC(=O)O)[C@H]1CC[C@H]2[C@@H]3CC[C@@H]4C[C@H](O)CC[C@]4(C)[C@H]3C[C@H](O)[C@]12C [Deoxycholic Acid, deoxycholic acid]
reported.result: 1.889
//
compound: C[C@H](CCC(=O)NCC(=O)O)[C@H]1CC[C@H]2[C@@H]3[C@H](O)C[C@@H]4C[C@H](O)CC[C@]4(C)[C@H]3C[C@H](O)[C@]12C [Glycocholic Acid, glycocholic acid]
reported.result: -23.6188
//
compound: C[C@H](CCC(=O)O)[C@H]1CC[C@H]2[C@@H]3[C@H](O)C[C@@H]4C[C@H](O)CC[C@]4(C)[C@H]3C[C@H](O)[C@]12C [Cholic Acid, cholic acid]
reported.result: 15

Now take the following compound into account.
// C[C@H](CCC(=O)O)[C@H]1CC[C@H]2[C@@H]3CC[C@@H]4C[C@H](O)CC[C@]4(C)[C@H]3CC[C@]12C [Lithocholic Acid, lithocholic acid] : RLU value = -2.182

###

- target.or.test.system: human TAS2R4 (Homo sapiens, UniProt Q9NYW5)
- Construct: expressed in transfected cells; host or cells: HEK293T-Gα16gust44
- Sequence (Q9NYW5 whole entry): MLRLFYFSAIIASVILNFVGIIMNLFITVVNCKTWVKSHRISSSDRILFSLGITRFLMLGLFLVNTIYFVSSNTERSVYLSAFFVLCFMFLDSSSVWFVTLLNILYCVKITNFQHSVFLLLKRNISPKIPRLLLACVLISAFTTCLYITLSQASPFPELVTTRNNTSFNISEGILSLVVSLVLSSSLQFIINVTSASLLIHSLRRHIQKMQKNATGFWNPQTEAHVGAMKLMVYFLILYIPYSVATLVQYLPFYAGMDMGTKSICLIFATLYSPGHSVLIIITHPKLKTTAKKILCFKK
- assay: Calcium imaging assay (FLIPR), HEK293T-Gα16gust44 cells transfected with human TAS2R4; further: test concentration or dose not given here
- Type: cell-based
- study.conditions: Time (s) 112.781 (TCA, TLCA: 112.782)
- Method: This set of bile acids was chosen because of their commercial availability in high purities, their diversity within the class of bile acids and their previous detection and quantitation in human blood. Stock solutions were prepared in DMSO. […] Measured data were negative control corrected by subtracting the signal of the mock-transfected cells and exported to Microsoft Excel using the FLIPR software ScreenWorks 4.2. […]
reported.property: RLU, fluorescence trace (RLU)
Numbers only, in RLU.

Check out these entries, answers already filled in.
structure.notation: C[C@H](CCC(=O)NCCS(=O)(=O)O)[C@H]1CC[C@H]2[C@@H]3[C@H](O)C[C@@H]4C[C@H](O)CC[C@]4(C)[C@H]3C[C@H](O)[C@]12C
target.or.test.system: human TAS2R4 (Homo sapiens, UniProt Q9NYW5)
RLU, fluorescence trace / RLU: 640.87
--
structure.notation: C[C@H](CCC(=O)NCC(=O)O)[C@H]1CC[C@H]2[C@@H]3[C@H](O)C[C@@H]4C[C@H](O)CC[C@]4(C)[C@H]3C[C@H](O)[C@]12C
target.or.test.system: human TAS2R4 (Homo sapiens, UniProt Q9NYW5)
RLU, fluorescence trace / RLU: 583.918

Now take the following molecule into account.
// `C[C@H](CCC(=O)O)[C@H]1CC[C@H]2[C@@H]3[C@@H](O)C[C@@H]4C[C@H](O)CC[C@]4(C)[C@H]3CC[C@]12C` : RLU, fluorescence trace value = 267.37

###

- target.or.test.system: human TAS2R1 (Homo sapiens)
- Construct: expressed in transfected cells; host or cells: HEK293T-Gα16gust44
- Sequence (Q9NYW7 1-299): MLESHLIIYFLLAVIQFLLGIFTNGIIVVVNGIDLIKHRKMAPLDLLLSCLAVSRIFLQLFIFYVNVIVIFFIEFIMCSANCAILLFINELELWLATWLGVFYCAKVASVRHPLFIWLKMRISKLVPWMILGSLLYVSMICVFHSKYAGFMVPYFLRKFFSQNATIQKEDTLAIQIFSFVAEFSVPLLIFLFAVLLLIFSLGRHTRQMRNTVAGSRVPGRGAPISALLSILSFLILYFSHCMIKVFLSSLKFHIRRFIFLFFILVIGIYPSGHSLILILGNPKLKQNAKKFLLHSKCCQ
- assay: Calcium imaging assay (FLIPR), HEK293T-Gα16gust44 cells transfected with human TAS2R1
- Type: cell-based
- study.conditions: TAS2R1; bile acids; mean
reported.property: Efficacy = maximal amplitude (ΔF/F)
Give bare numbers.

Check out these entries, answers already filled in.
structure.notation: C[C@H](CCC(=O)NCCS(=O)(=O)O)[C@H]1CC[C@H]2[C@@H]3CC[C@@H]4C[C@H](O)CC[C@]4(C)[C@H]3CC[C@]12C
target.or.test.system: human TAS2R1 (Homo sapiens)
Efficacy = maximal amplitude (ΔF/F): 0.1277
//
structure.notation: C[C@H](CCC(=O)NCCS(=O)(=O)O)[C@H]1CC[C@H]2[C@@H]3[C@H](O)C[C@@H]4C[C@H](O)CC[C@]4(C)[C@H]3C[C@H](O)[C@]12C
target.or.test.system: human TAS2R1 (Homo sapiens)
Efficacy = maximal amplitude (ΔF/F): 0.09987

Now take the following compound into account.
// `C[C@H](CCC(=O)NCC(=O)O)[C@H]1CC[C@H]2[C@@H]3[C@H](O)C[C@@H]4C[C@H](O)CC[C@]4(C)[C@H]3C[C@H](O)[C@]12C` : Efficacy = maximal amplitude (ΔF/F) value = 0.1325

###

- target.or.test.system: human TAS2R4 (Homo sapiens, UniProt Q9NYW5)
- Construct: expressed in transfected cells; host or cells: HEK293T-Gα16gust44
- assay: Calcium imaging assay (FLIPR), HEK293T-Gα16gust44 cells transfected with human TAS2R4; further: test concentration or dose not given here
- Type: cell-based
- study.conditions: Time (s) 12
reported.property: RLU, fluorescence trace (RLU)
Numbers only, in RLU.

Check out these entries, answers already filled in.
structure.notation: C[C@H](CCC(=O)O)[C@H]1CC[C@H]2[C@@H]3[C@H](O)C[C@@H]4C[C@H](O)CC[C@]4(C)[C@H]3C[C@H](O)[C@]12C
reported.property: RLU, fluorescence trace
u: RLU
reported.result: 0.674

structure.notation: C[C@H](CCC(=O)NCCS(=O)(=O)O)[C@H]1CC[C@H]2[C@@H]3CC[C@@H]4C[C@H](O)CC[C@]4(C)[C@H]3CC[C@]12C
reported.property: RLU, fluorescence trace
u: RLU
reported.result: -12.8379

structure.notation: C[C@H](CCC(=O)NCCS(=O)(=O)O)[C@H]1CC[C@H]2[C@@H]3[C@H](O)C[C@@H]4C[C@H](O)CC[C@]4(C)[C@H]3C[C@H](O)[C@]12C
reported.property: RLU, fluorescence trace
u: RLU
reported.result: 7.77

structure.notation: C[C@H](CCC(=O)O)[C@H]1CC[C@H]2[C@@H]3[C@@H](O)C[C@@H]4C[C@H](O)CC[C@]4(C)[C@H]3CC[C@]12C
reported.property: RLU, fluorescence trace
u: RLU
reported.result: -11.1029

structure.notation: C[C@H](CCC(=O)NCC(=O)O)[C@H]1CC[C@H]2[C@@H]3[C@H](O)C[C@@H]4C[C@H](O)CC[C@]4(C)[C@H]3C[C@H](O)[C@]12C
reported.property: RLU, fluorescence trace
u: RLU
reported.result: -12.9106

Now take the following molecule into account.
Measured RLU, fluorescence trace (human TAS2R4 (Homo sapiens, UniProt Q9NYW5)), entry `C[C@H](CCC(=O)O)[C@H]1CC[C@H]2[C@@H]3CC[C@@H]4C[C@H](O)CC[C@]4(C)[C@H]3C[C@H](O)[C@]12C` : -21.8648
